target: μ-opioid receptor (Homo sapiens, UniProt P35372); assay: μ-opioid receptor radioligand dose-displacement binding assay; conditions: [3H]-diprenorphine displacement; read-out: Ki (nM) Opioid Receptor μ
Sequence (P35372 whole entry): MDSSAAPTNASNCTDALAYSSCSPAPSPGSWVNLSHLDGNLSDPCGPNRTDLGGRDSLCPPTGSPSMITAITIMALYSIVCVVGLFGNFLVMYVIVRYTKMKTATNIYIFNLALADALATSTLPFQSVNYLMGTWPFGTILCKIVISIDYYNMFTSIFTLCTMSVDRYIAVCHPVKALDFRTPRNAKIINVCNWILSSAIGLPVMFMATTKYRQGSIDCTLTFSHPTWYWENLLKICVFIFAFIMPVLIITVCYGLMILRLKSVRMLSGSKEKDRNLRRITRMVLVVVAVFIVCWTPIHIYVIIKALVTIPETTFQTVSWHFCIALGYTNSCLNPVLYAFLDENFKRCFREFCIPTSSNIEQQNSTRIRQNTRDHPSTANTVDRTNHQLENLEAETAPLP
Measured Ki, listed per entry for reference.
quantity_name: Ki (nM)

C[C@H]1C2Cc3ccc(O)cc3[C@@]1(CCCC(N)=O)CCN2CC1CC1 [Compound 2]	10.7
COc1ccc2c(c1)[C@@]1(CCCc3ccco3)CCN(CC3CC3)C(C2)C1C (stereo in doubt) [Compound 15]	389
CC(C)CN1CC[C@@]2(CCCC(N)=O)c3cc(O)ccc3C[C@@H]1[C@@H]2C [Compound 18]	19.8
COc1ccc2c(c1)[C@@]1(CCCC(=O)N[C@@H](C)C(N)=O)CCN(CC3CC3)C(C2)[C@@H]1C [Compound 14]	4270
CC(C)N1CC[C@@]2(CCCC(N)=O)c3cc(O)ccc3C[C@@H]1[C@@H]2C [Compound 17]	165
COc1ccc2c(c1)[C@@]1(CCCCNCC(C)C)CCN(CC3CC3)C(C2)[C@@H]1C [Compound 9]	448
C[C@H](NC(=O)CCC[C@]12CCN(CC3CC3)[C@H](Cc3ccc(O)cc31)[C@@H]2C)C(N)=O [Compound 22]	6.33
COC(=O)/C=C/C[C@@]12CCN(CC3CC3)C(Cc3ccc(OC)cc31)[C@@H]2C [Compound 8]	1810

---

target: κ opioid receptor (Homo sapiens, UniProt P41145); assay: κ-opioid receptor [35S]GTPγS functional assay; type: biochemical; parameters: expressed in transfected cells; conditions: relative to the effect elicited by U69,593
Sequence (P41145 whole entry): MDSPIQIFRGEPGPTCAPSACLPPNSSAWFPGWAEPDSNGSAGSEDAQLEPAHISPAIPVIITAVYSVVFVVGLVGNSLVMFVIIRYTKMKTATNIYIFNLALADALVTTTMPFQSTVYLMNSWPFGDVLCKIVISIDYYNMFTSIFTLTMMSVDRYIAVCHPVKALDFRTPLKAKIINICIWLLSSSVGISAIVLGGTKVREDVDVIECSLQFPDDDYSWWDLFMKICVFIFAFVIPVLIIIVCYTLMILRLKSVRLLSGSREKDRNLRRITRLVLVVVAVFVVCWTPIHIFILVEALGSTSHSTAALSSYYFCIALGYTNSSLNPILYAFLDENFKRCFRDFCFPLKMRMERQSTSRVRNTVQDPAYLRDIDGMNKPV
Examples of compounds with documented Emax follow.
quantity_name: Emax (%)

COC(=O)/C=C/C[C@@]12CCN(CC3CC3)C(Cc3ccc(OC)cc31)[C@@H]2C	99.3
COC(=O)c1cccc(C(=O)NCC[C@]23CCN(CC4CC4)[C@H](Cc4ccc(OC)cc42)[C@@H]3C)c1	105
COC(=O)CCC[C@]12CCN(CC3CC3)[C@H](Cc3ccc(O)cc31)[C@@H]2C	57
C[C@H]1[C@H]2Cc3ccc(O)cc3[C@]1(CCOc1cncc(C(=O)O)c1)CCN2CC1CC1	60.7
C[C@H]1[C@H]2Cc3ccc(O)cc3[C@@]1(CCNC(=O)CN)CCN2CC1CC1	90.3
COc1ccc2c(c1)[C@]1(CCOc3ccc(C(=O)O)cc3)CCN(CC3CC3)[C@H](C2)[C@@H]1C	88.3
COc1ccc2c(c1)[C@@]1(CCCCOCc3ccccc3)CCN(CC3CC3)C(C2)[C@@H]1C	97.7
COc1ccc2c(c1)[C@@]1(C[C@H](O)CO)CCN(CC3CC3)C(C2)[C@@H]1C	69.3
COc1ccc2c(c1)[C@@]1(CCCc3ccco3)CCN(CC3CC3)C(C2)C1C (stereo in doubt)	82.3
C[C@H]1[C@H]2Cc3ccc(O)cc3[C@]1(CCCC(N)=O)CCN2CC1CC1	58.2
COc1ccc2c(c1)[C@]1(CCNC(=O)c3ccc(C(=O)O)cc3)CCN(CC3CC3)[C@H](C2)[C@@H]1C	69.3
COc1ccc2c(c1)[C@@]1(CCCC(=O)O)CCN(CC3CC3)C(C2)[C@@H]1C	80.7
COc1ccc2c(c1)[C@@]1(CC(=O)N[C@@H](C)C(N)=O)CCN(CC3CC3)C(C2)[C@@H]1C	29.7
C[C@H](NC(=O)CCC[C@]12CCN(CC3CC3)[C@H](Cc3ccc(O)cc31)[C@@H]2C)C(N)=O	53.3
COc1ccc2c(c1)[C@@]1(CCCCO)CCN(CC3CC3)C(C2)[C@@H]1C	71.3
C[C@H](NC(=O)C[C@@]12CCN(CC3CC3)C(Cc3ccc(O)cc31)[C@@H]2C)C(N)=O	31.3
COc1ccc2c(c1)[C@@]1(CCC[C@H](O)CO)CCN(CC3CC3)C(C2)[C@@H]1C	81
C[C@H]1C2Cc3ccc(O)cc3[C@@]1(CCCC(=O)O)CCN2CC1CC1	67.3
COC(=O)[C@H](C)NC(=O)CCC[C@]12CCN(CC3CC3)[C@H](Cc3ccc(O)cc31)[C@@H]2C	67.5
CC(C)N1CC[C@@]2(CCCC(N)=O)c3cc(O)ccc3C[C@@H]1[C@@H]2C	60.7
COc1ccc2c(c1)[C@@]1(CCCCNCC(C)C)CCN(CC3CC3)C(C2)[C@@H]1C	103
COc1ccc2c(c1)[C@]1(CCNC(=O)c3cccc(C(=O)O)c3)CCN(CC3CC3)[C@H](C2)[C@@H]1C	88.7
C[C@H]1[C@H]2Cc3ccc(O)cc3[C@]1(CCNC(=O)CN(C)C)CCN2CC1CC1	96.5
C[C@H]1C2Cc3ccc(O)cc3[C@@]1(CCCC(N)=O)CCN2CC1CC1	67.3
COc1ccc2c(c1)[C@@]1(CCCC(=O)N[C@@H](C)C(N)=O)CCN(CC3CC3)C(C2)[C@@H]1C	63
COc1ccc2c(c1)[C@@]1(CCC[C@@H](O)CO)CCN(CC3CC3)C(C2)[C@@H]1C	95
C[C@H]1[C@H]2Cc3ccc(O)cc3[C@]1(CCOc1ccc(C(=O)O)cc1)CCN2CC1CC1	110
CC(C)CN1CC[C@@]2(CCCC(N)=O)c3cc(O)ccc3C[C@@H]1[C@@H]2C	43
